Target System: GluR1 flip/stargazin (AMPA receptor) in CHO-K1/GluR1 flip/stargazin-expressing cells (Homo sapiens, UniProt P42261)
Construct: expressed in transfected cells; host or cells: CHO-K1
Sequence (P42261 19-906 isoform P42261-2 limits assumed): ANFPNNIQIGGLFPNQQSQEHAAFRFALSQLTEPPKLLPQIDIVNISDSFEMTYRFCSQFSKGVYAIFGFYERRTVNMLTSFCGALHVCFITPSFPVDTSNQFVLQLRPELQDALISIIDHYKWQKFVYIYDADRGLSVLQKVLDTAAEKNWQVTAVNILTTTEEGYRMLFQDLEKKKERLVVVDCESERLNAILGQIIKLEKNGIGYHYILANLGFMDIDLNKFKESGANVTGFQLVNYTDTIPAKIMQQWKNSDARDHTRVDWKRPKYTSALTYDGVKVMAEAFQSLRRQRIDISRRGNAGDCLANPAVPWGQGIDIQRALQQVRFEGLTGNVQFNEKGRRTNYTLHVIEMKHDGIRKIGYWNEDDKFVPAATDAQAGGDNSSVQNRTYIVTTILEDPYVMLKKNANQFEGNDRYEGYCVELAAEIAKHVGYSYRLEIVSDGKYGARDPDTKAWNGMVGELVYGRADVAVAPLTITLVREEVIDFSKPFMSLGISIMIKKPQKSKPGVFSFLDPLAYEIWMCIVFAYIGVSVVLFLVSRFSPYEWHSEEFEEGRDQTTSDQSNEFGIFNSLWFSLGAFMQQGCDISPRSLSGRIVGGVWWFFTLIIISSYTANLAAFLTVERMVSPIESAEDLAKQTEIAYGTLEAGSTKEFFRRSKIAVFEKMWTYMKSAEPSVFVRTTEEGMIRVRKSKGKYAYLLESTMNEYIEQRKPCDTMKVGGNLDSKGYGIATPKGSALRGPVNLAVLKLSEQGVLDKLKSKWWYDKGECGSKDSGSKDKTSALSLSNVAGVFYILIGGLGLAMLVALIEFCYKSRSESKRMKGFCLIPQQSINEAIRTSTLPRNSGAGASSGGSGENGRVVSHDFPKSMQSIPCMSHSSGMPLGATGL
Sequence (Q9Y698 whole entry partner): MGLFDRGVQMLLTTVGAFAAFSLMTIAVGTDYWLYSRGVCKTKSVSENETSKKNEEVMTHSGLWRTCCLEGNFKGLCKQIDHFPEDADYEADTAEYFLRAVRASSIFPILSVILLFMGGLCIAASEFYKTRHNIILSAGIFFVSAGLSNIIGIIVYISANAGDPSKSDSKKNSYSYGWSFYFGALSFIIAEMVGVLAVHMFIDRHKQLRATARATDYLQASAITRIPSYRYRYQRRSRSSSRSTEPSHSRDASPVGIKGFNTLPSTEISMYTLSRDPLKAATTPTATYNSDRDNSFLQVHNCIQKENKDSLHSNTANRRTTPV
Test Name: AMPA receptor function-enhancing activity of compound, using calcium influx as an index
Format: cell-based
Condition: test compound final concentration 30 μM with 3 mM glutamic acid, 100% = 3 mM glutamic acid + 300 μM cyclothiazide
Property Label: activity (%)

The following molecules have reported results that may help.
Just so you know, measured activity (%) for CC(C)COc1ccc(C23CCC(CC2)N2CCS(=O)(=O)N=C23)cc1 [Example 28] came out at 91

Just so you know, measured activity (%) for CC(F)(F)c1cccc(Oc2ccc(C34CCC(CC3)N3CCS(=O)(=O)N=C34)cc2)c1 [Example 2] came out at 74

Just so you know, measured activity (%) for O=S1(=O)CCN2C(=N1)C1(c3ccc(Oc4ncccn4)cc3)CCC2CC1 [Example 23] came out at 61

Just so you know, measured activity (%) for O=S1(=O)CCN2C(=N1)C1(c3ccc(OCC4CCCO4)cc3)CCC2CC1 (stereo not shown) [Example 38] came out at 87

a. O=S1(=O)CCN2C(=N1)C1(c3ccc(OCc4cccc(Cl)c4)cc3)CCC2CC1 [Example 30]
b. Cc1ccc(Oc2ccc(C34CCC(CC3)N3CCS(=O)(=O)N=C34)cc2)cc1C#N [Example 47]
Query :: Which value of activity (%) is greater, the one for a or the one for b ? Answer = label.
Result :: b
(b: 87%, a: 22%)

====

Target System: GluR1 flip/stargazin (AMPA receptor) in CHO-K1/GluR1 flip/stargazin-expressing cells (Homo sapiens, UniProt P42261)
Construct: expressed in transfected cells; host or cells: CHO-K1
Test Name: AMPA receptor function-enhancing activity of compound, using calcium influx as an index
Format: cell-based
Condition: test compound final concentration 30 μM with 3 mM glutamic acid, 100% = 3 mM glutamic acid + 300 μM cyclothiazide
Property Label: activity (%)

The following molecules have reported results that may help.
Just so you know, measured activity (%) for O=S1(=O)CCN2C(=N1)C1(c3ccc(Oc4cc(C(F)(F)F)ccn4)cc3)CCC2CC1 [Example 15] came out at 92

Just so you know, measured activity (%) for O=S1(=O)CCN2CCCN(c3ccc(Oc4ccc(Cl)cc4)cc3)C2=N1 [Example 45] came out at 77

I. N#Cc1cccc(Oc2ccc(C34CCC(CC3)N3CCS(=O)(=O)N=C34)cc2)c1 [Example 16]
II. O=S1(=O)CCN2C(=N1)C1(c3ccc(Oc4ccc(Cl)cc4)cc3)CCC2CC1 [Example 1]
Query :: Which value of activity (%) is greater, the one for I or the one for II ? Answer = label.
Result :: I
